Listed below: IC50 values for each entry.
- System: SARS-CoV-2 Alpha var (B.1.1.7)
- PROCEDURE DETAILS: microbe, parasite or virus in culture
- Assay type: cell-based
- CONDITIONS USED: Severe acute respiratory syndrome coronavirus 2, vero cells
OBSERVABLE: IC50 (µM)

INSERT INTO results (molecule, system_name, unit_annotation, value) VALUES
  ('CC(=O)c1c(O)c(C)c(O)c2c1OC1=CC(=O)C(C(C)=O)C(=O)[C@@]12C (single isomer, unassigned; (+)) [(+)-usnic acid]', 'SARS-CoV-2 Alpha var (B.1.1.7)', 'µM', 6.05),
  ('CCC(CC)COC(=O)[C@H](C)N[P@](=O)(OC[C@H]1O[C@@](C#N)(c2ccc3c(N)ncnn23)[C@H](O)[C@@H]1O)Oc1ccccc1 [remdesivir]', 'SARS-CoV-2 Alpha var (B.1.1.7)', 'µM', 2.25),
  ('CCN(CC)CCCC(C)Nc1ccnc2cc(Cl)ccc12 (stereo not shown) [chloroquine]', 'SARS-CoV-2 Alpha var (B.1.1.7)', 'µM', 6.16),
  ('Cc1cccc(C)c1OCC(=O)N[C@@H](Cc1ccccc1)[C@@H](O)C[C@H](Cc1ccccc1)NC(=O)[C@H](C(C)C)N1CCCNC1=O [lopinavir]', 'SARS-CoV-2 Alpha var (B.1.1.7)', 'µM', 10.8);
